The reported numbers originate from ChEMBL document CHEMBL5058577.

test system: HEK-293T; experiment: Multiplex assay against HEK293T; type: toxicity, cell-based; conditions: human, 24 h, 1 µM, compound concentration 1 uM, replicate 1
Class yes: Population Tubulin-Different-Phenotype (%) at least 20%. Class no: Population Tubulin-Different-Phenotype (%) below 20%.

These recorded examples may help you get a feel for the data.
>>> class_name("O=c1nc2[nH]c3ccccc3nc-2c(=O)[nH]1")
"no"
>>> class_name("C[C@H](NC(=O)CNC(=O)c1cccc(Cl)c1)c1ccccc1")
"no"

Query :: Determine whether measured Population Tubulin-Different-Phenotype (%) meets or exceeds 20% for Cc1c(Cc2ccc3ccccc3n2)c2cc(F)ccc2n1CC(=O)O
Result :: no

Query :: Determine whether measured Population Tubulin-Different-Phenotype (%) meets or exceeds 20% for O=c1ccc2ccc(OCCCCN3CCN(c4cccc5sccc45)CC3)cc2[nH]1
Result :: yes

Query :: Determine whether measured Population Tubulin-Different-Phenotype (%) meets or exceeds 20% for CN(C)C/C=C/C(=O)Nc1ccc(C(=O)N2CCCC(Nc3ncc(Cl)c(-c4c[nH]c5ccccc45)n3)C2)cc1 (centres undefined)
Result :: yes

Query :: Determine whether measured Population Tubulin-Different-Phenotype (%) meets or exceeds 20% for CN1CCN(c2ccc(Nc3c4ccccc4nc4ccccc34)cc2)CC1.Cl.Cl.O
Result :: no

Query :: Determine whether measured Population Tubulin-Different-Phenotype (%) meets or exceeds 20% for Cc1sc2c(c1C)C(c1ccc(Cl)cc1)=N[C@H](CC(=O)OC(C)(C)C)c1nnc(C)n1-2
Result :: no

Query :: Determine whether measured Population Tubulin-Different-Phenotype (%) meets or exceeds 20% for CN1CCN2c3ccccc3Cc3ccccc3C2C1.Cl (centres undefined) [MIANSERIN HYDROCHLORIDE]
Result :: no

Query :: Determine whether measured Population Tubulin-Different-Phenotype (%) meets or exceeds 20% for Cc1ccc(OCC(O)C(C)NC(C)C)c2c1CCC2.Cl (centres undefined)
Result :: yes

Query :: Determine whether measured Population Tubulin-Different-Phenotype (%) meets or exceeds 20% for COC(c1ccccc1)(c1ccccc1)[C@H](Oc1nc(C)cc(C)n1)C(=O)O
Result :: no

Query :: Determine whether measured Population Tubulin-Different-Phenotype (%) meets or exceeds 20% for O=C(O)CCC/C=C\CC1C(O)CC(O)C1/C=C/C(O)COc1cccc(Cl)c1 (centres undefined)
Result :: yes

###

system: Fibroblast; experiment: Multiplex assay against human fibroblast; type: toxicity, cell-based; details: 48 h, 10 µM, compound concentration 10 uM, replicate 2
ENDPOINT_NAME: Population Healthy Nuclei (%)
Field: numeric (%). Do not append units.

Solved cases (2 shown):
>>> numeric_result("Cl.Cl.OCCOCCN1CCN(C(c2ccccc2)c2ccc(Cl)cc2)CC1 (stereo unspecified) [HYDROXYZINE HYDROCHLORIDE]")
47
>>> numeric_result("Cc1c(Cc2ccc3ccccc3n2)c2cc(F)ccc2n1CC(=O)O")
59

Query :: Recorded Population Healthy Nuclei (%) for O=C(NCCNCC(O)COc1ccc(O)cc1)N1CCOCC1.O=C(NCCNCC(O)COc1ccc(O)cc1)N1CCOCC1.O=C(O)/C=C/C(=O)O (stereo unspecified) [XAMOTEROL FUMARATE] , please?
Result :: 54

Query :: Recorded Population Healthy Nuclei (%) for CN(C)C(=O)Cn1cc(-c2ccc(-c3nnc4ccccn34)cc2)cn1 , please?
Result :: 47
